- targetSystem: Candida albicans (Cat. No. 10231, ATCC) whole cells (Candida albicans)
- experimentNotes: converted from Table 20a with a Fab of about 50 kDa

>  <binder>
1H12 Fab (Fab, V domains shown) VH: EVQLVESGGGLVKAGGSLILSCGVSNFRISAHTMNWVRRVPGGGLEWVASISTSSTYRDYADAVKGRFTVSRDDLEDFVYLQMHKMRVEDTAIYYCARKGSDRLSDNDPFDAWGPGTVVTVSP VL: GVVMTQSPSTLSASVGDTITITCRASQSIETWLAWYQQKPGKAPKLLIYKASTLKTGVPSRFSGSGSGTEFTLTISGLQFDDFATYHCQHYMPYRASFGQGTRVEIKR

>  <affinity (converted to molar) [nM]>
180

$$$$
